Target: Tie2 receptor tyrosine kinase (Homo sapiens, UniProt Q02763)
Construct: consist of only the intracellular portion C-terminal portion of the respective receptor, within which is found the kinase domain; made in house; host or cells: baculovirus/Sf21 insect cells (or alternative equivalent); cleared lysate used, not purified protein
Experiment: In vitro receptor tyrosine kinase inhibition assay (ELISA based microtitre plate assay)
Type: biochemical
Details: recombinant human Tie2 kinase domain lysate, ATP 5 micromolar or Km; read-out: IC50 (μM) Test (a): Inhibition of Tie2 receptor tyrosine kinase in vitro
Can you tell me IC50 for the items I'm about to list?
All answers are understood in µM, so give the number only.

Query "Nc1ncnc(N)c1C#Cc1cccc(NS(=O)(=O)c2cc(F)ccc2F)c1" yields IC50 of 0.4

Query "Nc1ncnc(N)c1C#Cc1cccc(NS(=O)(=O)c2ccccc2Cl)c1" yields IC50 of 7.5

Query "Nc1ncnc(N)c1C#Cc1cccc(NS(=O)(=O)c2cccc(Cl)c2Cl)c1" yields IC50 of 3.7

###

Target: Tie2 receptor (Homo sapiens, UniProt Q02763)
Construct: one can use natural cell lines or primary cells which are known to express the receptor of choice; endogenous in cells; host or cells: EA.hy926/B3 cells
Sequence (Q02763 23-1124): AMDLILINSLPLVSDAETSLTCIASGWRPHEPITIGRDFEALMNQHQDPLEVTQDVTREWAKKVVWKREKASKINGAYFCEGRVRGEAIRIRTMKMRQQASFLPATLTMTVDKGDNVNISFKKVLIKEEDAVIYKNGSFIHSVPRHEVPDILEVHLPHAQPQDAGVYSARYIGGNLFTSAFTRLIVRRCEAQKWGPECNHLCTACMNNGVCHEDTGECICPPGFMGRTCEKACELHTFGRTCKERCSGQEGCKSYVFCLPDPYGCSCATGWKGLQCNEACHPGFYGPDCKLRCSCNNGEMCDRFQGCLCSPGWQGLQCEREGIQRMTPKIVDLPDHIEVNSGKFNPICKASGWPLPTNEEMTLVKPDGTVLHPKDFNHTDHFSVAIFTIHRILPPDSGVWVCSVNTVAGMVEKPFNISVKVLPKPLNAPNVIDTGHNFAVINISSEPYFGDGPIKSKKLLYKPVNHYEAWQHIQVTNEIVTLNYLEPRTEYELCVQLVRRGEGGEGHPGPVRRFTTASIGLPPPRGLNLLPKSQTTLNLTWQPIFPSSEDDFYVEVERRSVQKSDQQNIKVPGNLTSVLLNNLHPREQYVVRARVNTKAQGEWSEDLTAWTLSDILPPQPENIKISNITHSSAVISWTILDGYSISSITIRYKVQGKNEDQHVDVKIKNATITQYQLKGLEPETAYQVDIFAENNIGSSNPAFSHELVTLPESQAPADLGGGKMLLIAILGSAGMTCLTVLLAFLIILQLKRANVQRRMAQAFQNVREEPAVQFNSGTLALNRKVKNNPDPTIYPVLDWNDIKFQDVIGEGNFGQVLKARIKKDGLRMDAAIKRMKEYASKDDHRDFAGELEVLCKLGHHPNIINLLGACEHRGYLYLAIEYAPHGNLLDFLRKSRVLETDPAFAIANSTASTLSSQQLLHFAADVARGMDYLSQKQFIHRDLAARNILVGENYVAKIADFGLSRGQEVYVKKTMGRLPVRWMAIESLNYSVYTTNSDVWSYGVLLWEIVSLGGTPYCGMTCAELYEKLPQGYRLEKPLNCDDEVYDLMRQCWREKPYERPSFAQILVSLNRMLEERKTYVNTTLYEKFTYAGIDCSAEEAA
Assay: Cellular Tie2 autophosphorylation assay (Ang1 ligand stimulated)
Format: cell-based
ASSAY READOUT: pIC50
Here pIC50 is given on a logarithmic scale as minus log10 of the concentration in mol/L.

Query "Nc1ncnc(N)c1C#Cc1cccc(NS(=O)(=O)c2cccc(Cl)c2Cl)c1" yields pIC50 of 6.54

###

Molecular target: Tie2 receptor (Homo sapiens)
Construct: one can use natural cell lines or primary cells which are known to express the receptor of choice; endogenous in cells; host or cells: EA.hy926/B3 cells
Assay: Cellular Tie2 autophosphorylation assay (Ang1 ligand stimulated)
Type: cell-based
Settings: whole cells, for example EA.hy926/B3, Ang1 ligand stimulated; read-out: IC50 (μM) Test (b): Inhibition of autophosphorylation of Tie2 receptor tyrosine kinase
ASSAY READOUT: IC50 (µM)
All answers are understood in µM, so give the number only.

Query "Nc1ncnc(N)c1C#Cc1cccc(NS(=O)(=O)c2cc(F)ccc2F)c1" yields IC50 of 0.34

Query "Nc1ncnc(N)c1C#Cc1cccc(NS(=O)(=O)c2ccccc2Cl)c1" yields IC50 of 0.78
